- targetUnderTest: PCSK9 (Homo sapiens, UniProt Q8NBP7)
- Sequence (Q8NBP7 153-692): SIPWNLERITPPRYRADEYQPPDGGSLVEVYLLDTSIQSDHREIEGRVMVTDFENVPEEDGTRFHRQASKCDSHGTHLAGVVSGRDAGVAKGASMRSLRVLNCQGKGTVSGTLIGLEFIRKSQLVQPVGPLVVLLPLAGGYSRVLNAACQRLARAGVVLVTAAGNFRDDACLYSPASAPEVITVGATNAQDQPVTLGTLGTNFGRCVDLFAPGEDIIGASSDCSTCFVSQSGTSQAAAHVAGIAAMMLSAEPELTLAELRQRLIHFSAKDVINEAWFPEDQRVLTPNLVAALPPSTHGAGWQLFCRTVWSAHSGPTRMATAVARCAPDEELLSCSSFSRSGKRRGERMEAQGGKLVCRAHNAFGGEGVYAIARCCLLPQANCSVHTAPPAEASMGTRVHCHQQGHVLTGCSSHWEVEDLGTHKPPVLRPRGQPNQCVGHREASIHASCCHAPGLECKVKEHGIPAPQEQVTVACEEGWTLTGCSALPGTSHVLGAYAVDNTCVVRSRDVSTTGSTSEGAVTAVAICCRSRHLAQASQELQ
- experimentalProtocol: Differential scanning calorimetry (DSC) assay, direct binding / thermal stabilization of PCSK9
- appliedConditions: Tm(with compound)−Tm(no compound); 2 μM PCSK9, 300 μM test compound
Exercise: for every item that follows, state its recorded ΔTm at 300 µM.
I'd appreciate it if you wrote the number followed by its unit.

Sample answers from the record:
INSERT INTO measurements (compound, targetundertest, experimentalvalue) VALUES
  ('COc1ccccc1C(=O)Nc1ccccc1-n1cc(C(=O)NCc2cn(CCOc3cc4c(cc3Oc3ccc(C(=O)O)c(F)c3)[C@@](C)(CC(=O)Nc3nccs3)NCC4)nn2)nc1C [Example 52]', 'PCSK9 (Homo sapiens, UniProt Q8NBP7)', '5.58 °C'),
  ('COc1cc2c(cc1Oc1cncc(F)c1)[C@@](C)(CC(=O)Nc1nccs1)NCC2 [Example 8]', 'PCSK9 (Homo sapiens, UniProt Q8NBP7)', '5.44 °C');

Complete the entry with ΔTm at 300 µM for C[C@]1(CC(=O)Nc2nccs2)NCCc2cc(OCCn3cc(C(O)CN)nn3)c(Oc3ccc(C(=O)O)c(F)c3)cc21 (stereo partly drawn) [Example 55]
5.82 °C

---

Exercise: for every item that follows, state its recorded ΔTm at 300 µM.
- targetUnderTest: PCSK9 (Homo sapiens, UniProt Q8NBP7)
- experimentalProtocol: Differential scanning calorimetry (DSC) assay, direct binding / thermal stabilization of PCSK9
- appliedConditions: Tm(with compound)−Tm(no compound); 2 μM PCSK9, 300 μM test compound
Give bare numbers, in °C.

Sample answers from the record:
INSERT INTO results (compound, unitinfo, experimentalvalue) VALUES
  ('Cc1cc(C)n2c1C=C1C=CC(CCC(=O)NCCOCCOc3cc4c(cc3Oc3ccc(C(=O)O)cc3)[C@@](C)(CC(=O)Nc3nccs3)NCC4)=[N+]1[B-]2(F)F [Example 59]', '°C', 5.15),
  ('COc1cc2c(cc1Oc1cccc(F)c1)[C@@](C)(CC(=O)Nc1nccs1)NCC2 [Example 9]', '°C', 5.92),
  ('COc1cc2c(cc1Oc1ccc(-c3ccc(C(=O)O)cc3)c(F)c1)[C@@](C)(CC(=O)Nc1nccs1)NCC2 [Example 22]', '°C', 7.52),
  ('C[C@]1(CC(=O)Nc2nccs2)NCCc2cc(OCCn3cc(CCCCCCCCC(=O)O)nn3)c(Oc3ccc(C(=O)O)c(F)c3)cc21 [Example 44]', '°C', 6.89),
  ('C[C@]1(CC(=O)Nc2cccnn2)NCCc2cc(OCC3CCCCO3)c(Oc3ccc(-c4ccc(C(=O)O)cc4)c(F)c3)cc21 (stereo partly drawn) [Example 91]', '°C', 7.19),
  ('COc1ccc(Oc2cc3c(cc2OC)CCN[C@]3(C)CC(=O)Nc2nccs2)cc1F [Example 10]', '°C', 5.55),
  ('COc1cccc(NC(=O)C[C@@]2(C)NCCc3cc(OC)c(Oc4cccc(F)c4)cc32)c1 [Example 11]', '°C', 5.69),
  ('COC(=O)c1ccc2cc1OCCCCCc1csc(n1)NC(=O)C[C@@]1(C)NCCc3cc(OC)c(cc31)O2 [Example 3]', '°C', 4.92);

// each compound listed below needs its ΔTm at 300 µM
1. C[C@]1(CC(=O)Nc2nccs2)NCCc2cc(OCCn3cc(-c4cnccn4)nn3)c(Oc3ccc(C(=O)O)c(F)c3)cc21 [Example 49]
2. Cn1nccc1NC(=O)c1ccc(Oc2cc3c(cc2OCC2CCCCO2)CCN[C@]3(C)CC(=O)Nc2nccs2)cc1F (stereo partly drawn) [Example 73]
3. COCCOc1cc2c(cc1Oc1ccc(C(=O)O)cc1)[C@@](C)(CC(=O)Nc1nccs1)NCC2 [Example 69]
4. C[C@]1(CC(=O)Nc2nccs2)NCCc2cc(OCC3CCCO3)c(Oc3ccc(-c4ccc(C(=O)O)cc4)c(F)c3)cc21 (stereo partly drawn) [Example 13]

[6.29, 6.66, 7.65, 8.4]

// each compound listed below needs its ΔTm at 300 µM
1. C[C@]1(CC(=O)Nc2nccs2)NCCc2cc(OCC3CCCCO3)c(Oc3ccc(C(=O)O)c(F)c3)cc21 (stereo partly drawn) [Example 62]
2. C[C@]1(CC(=O)Nc2nccs2)NCCc2cc(OCC3CCCO3)c(Oc3ccc(C(=O)O)cc3)cc21 (stereo partly drawn) [Example 67]
3. COc1cc2c(cc1Oc1cc(F)c(C(=O)O)c(F)c1)[C@@](C)(CC(=O)Nc1nccs1)NCC2 [Example 5]

1: 6.03; 2: 7.31; 3: 6.99

---

- targetUnderTest: PCSK9 (Homo sapiens, UniProt Q8NBP7)
- experimentalProtocol: Differential scanning calorimetry (DSC) assay, direct binding / thermal stabilization of PCSK9
- appliedConditions: Tm(with compound)−Tm(no compound); 2 μM PCSK9, 300 μM test compound
Exercise: for every item that follows, state its recorded DSC ΔTm.
One number for each entry, in °C.

Sample answers from the record:
INSERT INTO assay_data (molecule, experimentalvalue) VALUES
  ('C[C@]1(CC(=O)Nc2nccs2)NCCc2cc(OCC3CCCCO3)c(Oc3ccc(C(=O)Nc4n[nH]c5ncccc45)c(F)c3)cc21 (stereo partly drawn)', 6.67),
  ('Cc1ccc(C2C(C(=O)O)c3ccccc3C(=O)N2c2cccc(-c3cn(CCOc4cc5c(cc4Oc4ccc(C(=O)O)c(F)c4)[C@@](C)(CC(=O)Nc4nccs4)NCC5)nn3)c2)cc1 (stereo partly drawn)', 5.98);

Complete the entry with DSC ΔTm for "COc1cc2c(cc1Oc1ccc(-c3ccc(C(=O)O)cc3)cc1)[C@@](C)(CC(=O)Nc1nccs1)NCC2"
5.5

---

- targetUnderTest: PCSK9 (Homo sapiens)
Exercise: for every item that follows, state its recorded IC50.
One number for each entry, in nM.

Sample answers from the record:
INSERT INTO assay_data (compound, targetundertest, experimentalvalue) VALUES
  ('COC(=O)c1ccc(Oc2cc3c(cc2OCC2CCCCO2)CCN[C@]3(C)CC(=O)Nc2nccs2)cc1F (some centres unmarked) [Example 72]', 'PCSK9 (Homo sapiens)', 680),
  ('Cc1ncsc1-c1ccc(CNC(=O)[C@@H]2C[C@@H](O)CN2C(=O)[C@@H](NC(=O)COCC(=O)NCCOCCOc2cc3c(cc2Oc2ccc(-c4ccc(C(=O)O)cc4)c(F)c2)[C@@](C)(CC(=O)Nc2nccs2)NCC3)C(C)(C)C)cc1 [Example 105]', 'PCSK9 (Homo sapiens)', 225),
  ('COc1cc2c(cc1Oc1ccc(-c3ccc(CC(=O)O)cc3)c(F)c1)[C@@](C)(CC(=O)Nc1nccs1)NCC2 [Example 31]', 'PCSK9 (Homo sapiens)', 522),
  ('C[C@]1(CC(=O)Nc2nccs2)NCCc2cc(OCC3CCCCO3)c(Oc3ccc(C(=O)Nc4n[nH]c5ncccc45)c(F)c3)cc21 (single isomer, unassigned) [Example 75]', 'PCSK9 (Homo sapiens)', 410);

// each compound listed below needs its IC50
1. C[C@]1(CC(=O)Nc2cccnn2)NCCc2cc(OCC3CCCCO3)c(Oc3ccc(-c4ccc(C(=O)O)cc4)c(F)c3)cc21 (some centres unmarked) [Example 91]
2. CC(C)C[C@@H](NC(=O)[C@H](O)[C@@H](N)Cc1ccccc1)C(=O)NCCOCCOc1cc2c(cc1Oc1ccc(-c3ccc(C(=O)O)cc3)c(F)c1)[C@@](C)(CC(=O)Nc1nccs1)NCC2 [Example 100]
3. Cn1nccc1NC(=O)c1ccc(Oc2cc3c(cc2OCC2CCCCO2)CCN[C@]3(C)CC(=O)Nc2nccs2)cc1F (single isomer, unassigned) [Example 77]

860
96.4
591

Complete the entry with IC50 for COCCOCc1cn(CCOc2cc3c(cc2Oc2ccc(C(=O)O)c(F)c2)[C@@](C)(CC(=O)Nc2nccs2)NCC3)nn1 [Example 41]
354

---

- targetUnderTest: PCSK9 (Homo sapiens)
- experimentalProtocol: Differential scanning calorimetry (DSC) assay, direct binding / thermal stabilization of PCSK9
- appliedConditions: Tm(with compound)−Tm(no compound); 2 μM PCSK9, 300 μM test compound
// boundary case: ΔTm at 300 µM equal to 6 °C maps to not satisfied; strictly smaller maps to satisfied

# example entries with known answers
INSERT INTO measurements (compound, grouplabel) VALUES
  ('Cn1nccc1NC(=O)c1ccc(Oc2cc3c(cc2OCC2CCCCO2)CCN[C@]3(C)CC(=O)Nc2nccs2)cc1F (single isomer, unassigned) [Example 77]', 'not satisfied'),
  ('COC(=O)CCc1ccc(-c2ccc(Oc3cc4c(cc3OC)CCN[C@]4(C)CC(=O)Nc3nccs3)cn2)cc1', 'satisfied'),
  ('COc1cc2c3cc1Oc1ccc(C(=O)O)c(c1)OCCCCCCc1csc(n1)NC(=O)C[C@@]3(C)NCC2', 'satisfied'),
  ('COC(=O)c1ccc(Oc2cc3c(cc2OCc2ncccn2)CCN[C@]3(C)CC(=O)Nc2nccs2)cc1F', 'not satisfied'),
  ('COC(=O)c1cc(-c2cc3c(cc2OCC2CCCCO2)CCNC3(C)CC(=O)Nc2nccs2)ccc1F (centres unmarked)', 'not satisfied');

Please check: ΔTm at 300 µM for "COc1cc2c3cc1Oc1ccc(C(=O)O)c(c1)OC/C=C\CCc1csc(n1)NC(=O)C[C@@]3(C)NCC2" , strictly under 6 °C or not?
not satisfied

Please check: ΔTm at 300 µM for "C[C@]1(CC(=O)Nc2nccs2)NCCc2cc(OCCn3cc(CNS(C)(=O)=O)nn3)c(Oc3ccc(C(=O)O)c(F)c3)cc21" , strictly under 6 °C or not?
not satisfied

Please check: ΔTm at 300 µM for "COc1cc2c(cc1Oc1ccc(-c3ccc(C(=O)O)cc3F)c(F)c1)[C@@](C)(CC(=O)Nc1nccs1)NCC2" , strictly under 6 °C or not?
not satisfied

Please check: ΔTm at 300 µM for "COc1cc2c(cc1Oc1ccc(-c3ccc(C(=O)O)c(F)c3)c(F)c1)[C@@](C)(CC(=O)Nc1nccs1)NCC2" , strictly under 6 °C or not?
not satisfied

Please check: ΔTm at 300 µM for "COc1cc2c(cc1Oc1ccc(-c3ccc(CCC(=O)O)cc3)cc1)[C@@](C)(CC(=O)Nc1nccs1)NCC2" , strictly under 6 °C or not?
satisfied
